# System: Leishmania donovani
# methodSummary: Antileishmanial activity against Leishmania donovani promastigotes at 10 ug/mL
# Type: functional
measureName: inhibition at 10 µg/mL (%)
Response body: numeric value in %, unit text excluded.

1. FC(F)(F)c1ccc(OC(CCn2ccnc2)c2ccccc2)cc1 (stereo unspecified) ... 100
2. O=[N+]([O-])c1ccc(OC(Cn2ccnc2)c2ccccc2)cc1 (stereo unspecified) ... 95.5
3. O=[N+]([O-])c1ccc(OC(COc2ccccc2)Cn2ccnc2)c(F)c1 (stereo unspecified) ... 98.2
4. O=[N+]([O-])c1ccccc1OC(Cn1ccnc1)c1ccccc1 (stereo unspecified) ... 97.5
5. CC(CCn1ccnc1)Oc1ccc([N+](=O)[O-])cc1F (stereo unspecified) ... 100
6. FC(F)(F)c1ccc(OC(Cn2ccnc2)c2ccccc2)cc1 (stereo unspecified) ... 98.6

Prompt line: Look up inhibition at 10 µg/mL of O=[N+]([O-])c1ccc(OC(CCn2ccnc2)c2ccccc2)cc1 (stereo unspecified) and report it.
Response line: 99

Prompt line: Look up inhibition at 10 µg/mL of O=[N+]([O-])c1ccccc1OC(COc1ccccc1)Cn1ccnc1 (stereo unspecified) and report it.
Response line: 95.5

Prompt line: Look up inhibition at 10 µg/mL of CC(CCn1ccnc1)Oc1ccc([N+](=O)[O-])cc1C(F)(F)F (stereo unspecified) and report it.
Response line: 100

Prompt line: Look up inhibition at 10 µg/mL of C[C@@H](Cn1ccnc1)[C@@H](Oc1ccc(C(F)(F)F)cc1)c1ccccc1 (relative stereo) and report it.
Response line: 100

Prompt line: Look up inhibition at 10 µg/mL of O=[N+]([O-])c1ccc(OC(Cn2ccnc2)c2ccccc2)c(F)c1 (stereo unspecified) and report it.
Response line: 94.6

* * *

# System: Leishmania donovani
# methodSummary: Antileishmanial activity against Leishmania donovani amastigotes
# Type: functional, organism-based
# conditionLabel: Leishmania donovani; read-out: IC50
Kindly apply the following: met if IC50 is less than 6 µg/mL, not met in every other case.

For orientation, consider the following solved cases.
1. O=[N+]([O-])c1ccc(OC(COc2ccccc2)Cn2ccnc2)cc1 (stereo not drawn) ... met
2. O=[N+]([O-])c1ccccc1OC(COc1ccccc1)Cn1ccnc1 (stereo not drawn) ... met
3. CC(CCn1ccnc1)Oc1ccc([N+](=O)[O-])cc1C(F)(F)F (stereo not drawn) ... not met
4. O=[N+]([O-])c1ccc(OC(COc2ccccc2)Cn2ccnc2)c(F)c1 (stereo not drawn) ... met
5. O=[N+]([O-])c1ccc(OC(Cn2ccnc2)c2ccccc2)c(F)c1 (stereo not drawn) ... met

Prompt line: Hello, I'm reviewing records and need to know if IC50 of O=[N+]([O-])c1ccc(OC(Cn2ccnc2)c2ccccc2)cc1 (stereo not drawn) is below 6 µg/mL. Could you check?
Response line: met

Prompt line: Hello, I'm reviewing records and need to know if IC50 of CC(CCn1ccnc1)Oc1ccc(C(F)(F)F)cc1 (stereo not drawn) is below 6 µg/mL. Could you check?
Response line: not met

Prompt line: Hello, I'm reviewing records and need to know if IC50 of C[C@@H]1[C@H](O)[C@@H](C)/C=C/C=C/C=C/C=C/C=C/C=C/C=C/[C@H](O[C@@H]2O[C@H](C)[C@@H](O)[C@H](N)[C@@H]2O)C[C@@H]2O[C@](O)(C[C@@H](O)C[C@@H](O)[C@H](O)CC[C@@H](O)C[C@@H](O)CC(=O)O[C@H]1C)C[C@H](O)[C@H]2C(=O)O is below 6 µg/mL. Could you check?
Response line: met
